System: Wnt activity (Sp5-Luc reporter, SW480 colon carcinoma cells)
Experiment: Screening assay for Wnt activity: Sp5-Luc reporter gene assay in SW480 cells
Type: cell-based
Settings: Homo sapiens, 42 h incubation, luminescence
Could you please report measured IC50 for the items listed next?
Give bare numbers, in nM.

Reference set, count: 5
CCCC(=O)Nc1cncc(-c2ccc3[nH]nc(-c4nc5c(-c6cc(F)cc(CNS(C)(=O)=O)c6)nccc5[nH]4)c3c2)c1 | 24
CC(C)CC(=O)Nc1cncc(-c2ccc3[nH]nc(-c4nc5c(-c6cc(F)cc(OCCN(C)C)c6)nccc5[nH]4)c3c2)c1 | 370
CN1CCN(c2nccc3[nH]c(-c4n[nH]c5ccc(-c6cnn(C)c6)cc45)nc23)CC1 | 65
O=C(Nc1cncc(-c2ccc3[nH]nc(-c4nc5c(-c6ccoc6)nccc5[nH]4)c3c2)c1)C1CCC1 | 27.9
CN1CCN(c2nccc3[nH]c(-c4n[nH]c5ccc(-c6cccnc6)cc45)nc23)CC1 | 65

Turning to the following molecule.
stdin: Fill blank: measured IC50 of the molecule `Cc1ncc(-c2ccc3[nH]nc(-c4nc5c(-c6cccc(F)c6)nccc5[nH]4)c3c2)n1C` is ____.
stdout: 23

---

System: Wnt activity (Sp5-Luc reporter, SW480 colon carcinoma cells)
Assay: Screening assay for Wnt activity: Sp5-Luc reporter gene assay in SW480 cells
Assay type: cell-based
Conditions: Homo sapiens, 42 h incubation, luminescence
pIC50: −log10 of the molar value.
measurement kind: pIC50

Record pIC50 per entry; entries follow.
1. Cc1cn(-c2nccc3[nH]c(-c4n[nH]c5ccc(-c6cncc(NC(=O)C7CCC7)c6)cc45)nc23)cn1
2. Fc1cccc(-c2nccc3[nH]c(-c4n[nH]c5ccc(-c6ccncc6)cc45)nc23)c1
3. CCCCC(=O)Nc1cncc(-c2ccc3[nH]nc(-c4nc5c(-c6ccccn6)nccc5[nH]4)c3c2)c1

stdout:
["> 9.00", "< 5.00", 6.60]

FYI, the data here is from patent US10081631B2.
